# credit: the supplement of paper PMC12042874

# ASSAY_NOTES: amyloid nucleation score (Sup35N fusion, yeast selection) (log enrichment); library NNK2; higher = more nucleation; inactive = no reads after selection;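 note: zero at mode of non-aggregating sequences after 7 days selection at 30°C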
The recorded amyloid nucleation score of each item maps onto one of these classes: L (below -0.1), M (-0.1 to below 1), H (1 or more)

[
  {
    "SUBSTANCE": "MLCCLCMMVCDR",
    "CAT": "H"
  },
  {
    "SUBSTANCE": "KSDTMLRDYKKWVGHELYTR",
    "CAT": "M"
  },
  {
    "SUBSTANCE": "LRSLINCYAKVICRTYRFVG",
    "CAT": "L"
  },
  {
    "SUBSTANCE": "GLVRPLSLMVETANAVHG",
    "CAT": "H"
  },
  {
    "SUBSTANCE": "NFMGIIVLNQ",
    "CAT": "H"
  },
  {
    "SUBSTANCE": "FILDGSPVYWAIWKGG",
    "CAT": "L"
  },
  {
    "SUBSTANCE": "FNFVMLYPTPAGSAKFVGCI",
    "CAT": "H"
  },
  {
    "SUBSTANCE": "GINRKDKMSKCTDLVVFCLG",
    "CAT": "M"
  },
  {
    "SUBSTANCE": "LLNFMCIYYEWFQRSAEHAT",
    "CAT": "L"
  },
  {
    "SUBSTANCE": "IFASRSGFLSIRQLSHPARR",
    "CAT": "H"
  },
  {
    "SUBSTANCE": "DMSSHGGWFRPRRFLEISPL",
    "CAT": "M"
  },
  {
    "SUBSTANCE": "NLSWLVNWMEYVRGRLW",
    "CAT": "L"
  },
  {
    "SUBSTANCE": "FGDVQKPVRMLFVFSFWLLG",
    "CAT": "L"
  },
  {
    "SUBSTANCE": "YWFQKLEGSRHDMV",
    "CAT": "L"
  },
  {
    "SUBSTANCE": "LTYLVADLL",
    "CAT": "L"
  },
  {
    "SUBSTANCE": "ICGCCARIHNYNISVSACLT",
    "CAT": "H"
  },
  {
    "SUBSTANCE": "SGRYFRIRRPYEDCQGREVA",
    "CAT": "H"
  },
  {
    "SUBSTANCE": "RLRTKCYFNCCNGHYLEFGG",
    "CAT": "H"
  },
  {
    "SUBSTANCE": "SYACNRYKRMTAQIRNQGGM",
    "CAT": "M"
  },
  {
    "SUBSTANCE": "VSAGVTREGLEVGTVFGP",
    "CAT": "M"
  },
  {
    "SUBSTANCE": "VSVWYGGLVRVRSTWCKIKF",
    "CAT": "H"
  },
  {
    "SUBSTANCE": "VSYVYVKGFGVWFLCTCSPR",
    "CAT": "H"
  },
  {
    "SUBSTANCE": "INGPCVYFNFL",
    "CAT": "H"
  },
  {
    "SUBSTANCE": "LILRCLC",
    "CAT": "M"
  },
  {
    "SUBSTANCE": "LVRVGDFG",
    "CAT": "L"
  },
  {
    "SUBSTANCE": "ARSPCCLYQMHIYFAKAFAD",
    "CAT": "L"
  },
  {
    "SUBSTANCE": "LCLDIMFVSNI",
    "CAT": "L"
  },
  {
    "SUBSTANCE": "YDHDLINRKITSGHKVYFIG",
    "CAT": "L"
  },
  {
    "SUBSTANCE": "LDYRWKTGGSLWGG",
    "CAT": "L"
  },
  {
    "SUBSTANCE": "MSILESIRTRTRRVKGYLSC",
    "CAT": "M"
  },
  {
    "SUBSTANCE": "LQHYDLGSCSCRWVLVTSDK",
    "CAT": "M"
  },
  {
    "SUBSTANCE": "SFNVSTMRLQIVSVLRKSRR",
    "CAT": "M"
  },
  {
    "SUBSTANCE": "VLAGLMVNSGVL",
    "CAT": "L"
  },
  {
    "SUBSTANCE": "RDCICSVYPFAVLMGSQPLA",
    "CAT": "H"
  },
  {
    "SUBSTANCE": "RVGRSSKLWGFREYTSRKFG",
    "CAT": "M"
  }
]

====

sequences and their reported amyloid nucleation score
# ASSAY_NOTES: amyloid nucleation score (Sup35N fusion, yeast selection) (log enrichment); library NNK1; higher = more nucleation; inactive = no reads after selection
PROPERTY: amyloid nucleation score

[
  {
    "MONOMER_SEQUENCE": "EFYYMKLRYRVRRKF",
    "PROPERTY": "amyloid nucleation score",
    "ENDPOINT_RESULT": -0.716
  },
  {
    "MONOMER_SEQUENCE": "FETYFEHYWGCVTYSSMFWS",
    "PROPERTY": "amyloid nucleation score",
    "ENDPOINT_RESULT": 2.45
  },
  {
    "MONOMER_SEQUENCE": "GGTNFKDDDV",
    "PROPERTY": "amyloid nucleation score",
    "ENDPOINT_RESULT": 0.683
  },
  {
    "MONOMER_SEQUENCE": "RFCSKRMRVLIFFGLV",
    "PROPERTY": "amyloid nucleation score",
    "ENDPOINT_RESULT": -0.165
  },
  {
    "MONOMER_SEQUENCE": "LDGTAYVDFVVCLEGGTDVI",
    "PROPERTY": "amyloid nucleation score",
    "ENDPOINT_RESULT": -0.18
  },
  {
    "MONOMER_SEQUENCE": "ARFMLAWEVNCQG",
    "PROPERTY": "amyloid nucleation score",
    "ENDPOINT_RESULT": 1.39
  },
  {
    "MONOMER_SEQUENCE": "HWLPHDVLSMWW",
    "PROPERTY": "amyloid nucleation score",
    "ENDPOINT_RESULT": 1.29
  },
  {
    "MONOMER_SEQUENCE": "HVNSFKLGNGSFHFWY",
    "PROPERTY": "amyloid nucleation score",
    "ENDPOINT_RESULT": 0.634
  },
  {
    "MONOMER_SEQUENCE": "LQYSKGYDRVRDPILHTVN",
    "PROPERTY": "amyloid nucleation score",
    "ENDPOINT_RESULT": 0.389
  },
  {
    "MONOMER_SEQUENCE": "VSGTVLTIEYCPY",
    "PROPERTY": "amyloid nucleation score",
    "ENDPOINT_RESULT": 0.844
  },
  {
    "MONOMER_SEQUENCE": "YKGYYCGSDDFPDSEKPEDG",
    "PROPERTY": "amyloid nucleation score",
    "ENDPOINT_RESULT": -0.256
  },
  {
    "MONOMER_SEQUENCE": "YHSKLFVGGYWLYREDGREY",
    "PROPERTY": "amyloid nucleation score",
    "ENDPOINT_RESULT": 0.812
  },
  {
    "MONOMER_SEQUENCE": "AMWYMKCNTYKVWLGDMYLV",
    "PROPERTY": "amyloid nucleation score",
    "ENDPOINT_RESULT": 0.193
  },
  {
    "MONOMER_SEQUENCE": "CNQYWVSQ",
    "PROPERTY": "amyloid nucleation score",
    "ENDPOINT_RESULT": 0.322
  },
  {
    "MONOMER_SEQUENCE": "EGLLFYEYSSMCVEKDWIKN",
    "PROPERTY": "amyloid nucleation score",
    "ENDPOINT_RESULT": -0.136
  },
  {
    "MONOMER_SEQUENCE": "ESVIFFSCTYSSMMVSWTSR",
    "PROPERTY": "amyloid nucleation score",
    "ENDPOINT_RESULT": 0.382
  },
  {
    "MONOMER_SEQUENCE": "RIDLGQTVFMVKYIAA",
    "PROPERTY": "amyloid nucleation score",
    "ENDPOINT_RESULT": 0.122
  }
]

====

# maps each entry to its amyloid nucleation score
# ASSAY_NOTES: amyloid nucleation score (Sup35N fusion, yeast selection) (log enrichment); library NNK2; higher = more nucleation; inactive = no reads after selection

[
  {
    "SUBSTANCE": "WSNFVIMNVPANGAWNFRIR",
    "amyloid nucleation score": -1.13
  },
  {
    "SUBSTANCE": "LSFLKVW",
    "amyloid nucleation score": -0.654
  },
  {
    "SUBSTANCE": "HLYRSCVNKLL",
    "amyloid nucleation score": -0.833
  },
  {
    "SUBSTANCE": "KVANRYIK",
    "amyloid nucleation score": 0.136
  },
  {
    "SUBSTANCE": "YIYETTLCYNTIPGL",
    "amyloid nucleation score": -0.848
  },
  {
    "SUBSTANCE": "MNMSEMSAYHFLFSGGSKLR",
    "amyloid nucleation score": -0.21
  },
  {
    "SUBSTANCE": "TWCMRMNCSAFRKGVVNYSR",
    "amyloid nucleation score": 2.91
  }
]
